These entries and their values trace back to PubChem BioAssay (NCI).

- Tested on: OVCAR-4 ovarian
- ASSAY NAME: NCI tumour cell line growth inhibition, 48 h
MEASUREMENT TYPE: TGI

Consider the worked cases shown below.
[
  {
    "COMPOUND": "Cc1[nH]c(N=Nc2ccccc2)nc1N=Nc1ccccc1",
    "TARGET SYSTEM": "OVCAR-4 ovarian",
    "TGI": "55.4 µM"
  },
  {
    "COMPOUND": "c1ccc2c(c1)nc1n2CNCC1",
    "TARGET SYSTEM": "OVCAR-4 ovarian",
    "TGI": "> 100 µM"
  },
  {
    "COMPOUND": "O=[N+]([O-])C(C(Cl)=C(Cl)Cl)=C(N1CCOCC1)N1CCOCC1",
    "TARGET SYSTEM": "OVCAR-4 ovarian",
    "TGI": "> 100 µM"
  }
]

Answer for every listed entry: what is its TGI? The entries follow.
1. CCOC(=O)[C@H]1Nc2ccc(C)cc2C2c3ccccc3CC21 (some centres undefined)
2. C=C1C(=O)O[C@H]2[C@H]1CC/C(COC(=O)/C=C\C(=O)NCc1ccc(Cn3c(=O)sn(-c4ccc(C#N)cc4)c3=O)cc1)=C\CC[C@@]1(C)O[C@@H]21
3. CNC1C(=O)C(C)C(O)(C(CC(C)C(O)/C=C/C=C/CNC(=O)C(C)(C)C(O)\C(C)=C/C=C\C=C\Cc2cnc(C)o2)OC)C12C(=O)OC2COC (centres undefined) (tested in a mixture with another compound)
4. COc1ccc(C2CC(=O)c3c(OC)cc(OC)cc3O2)cc1 (centres undefined)
5. COc1ccccc1N1C(=O)/C(=C\c2cccc(Oc3ccccc3)c2)SC1c1ccccc1 (centres undefined)
6. NC1C2(CCCCCC2)NC(=O)C12CCCCCC2 (centres undefined)

Solution:
1. > 100 µM
2. 1.37 µM
3. > 100 µM
4. > 100 µM
5. > 100 µM
6. > 100 µM
